All values here come from patent US9751882B2.

Target protein (sequence): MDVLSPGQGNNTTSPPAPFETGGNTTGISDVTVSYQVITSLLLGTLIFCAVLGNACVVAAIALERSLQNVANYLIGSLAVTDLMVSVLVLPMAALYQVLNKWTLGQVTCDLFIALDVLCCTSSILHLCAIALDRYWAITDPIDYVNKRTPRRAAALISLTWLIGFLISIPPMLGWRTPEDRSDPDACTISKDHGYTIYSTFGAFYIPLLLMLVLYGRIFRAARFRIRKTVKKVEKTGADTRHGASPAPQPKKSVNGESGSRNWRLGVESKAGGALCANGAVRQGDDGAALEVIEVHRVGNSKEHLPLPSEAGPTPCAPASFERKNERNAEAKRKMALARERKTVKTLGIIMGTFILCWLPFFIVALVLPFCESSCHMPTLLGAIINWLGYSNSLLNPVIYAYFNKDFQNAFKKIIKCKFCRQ
pKi: −log10 of the molar value.
Recorded pKi by entry
Property Name: pKi

Compound | Value Observed
CCc1cc2c(s1)C[C@H]1c3cc(O)c(OC)cc3CCN1C2 [DS003] | 6.00
CCc1cc2c(s1)CCN1Cc3c(ccc(O)c3OC)C[C@@H]21 [AS005] | 6.89
COc1cc2c(cc1O)[C@@H]1Cc3sc(CCCl)cc3CN1CC2 [DS013] | 6.26
CCCc1cc2c(s1)C[C@H]1c3cc(O)c(OC)cc3CCN1C2 [DS005] | 5.71
COc1c(O)ccc2c1CN1CCc3sc(C)cc3[C@@H]1C2 [AS003] | 6.39
CCCCc1cc2c(s1)C[C@H]1c3cc(O)c(OC)cc3CCN1C2 [DS007] | 6.06
COc1cc2c(cc1OC)CN1CCc3c([nH]c4ccccc34)[C@@H]1C2 [AI001] | 6.14

* * *

Recorded 5-HT2A receptor inhibition % by entry
- System Tested: 5-HT2A receptor (Homo sapiens, UniProt P28223)
- Construct: expressed in transfected cells; host or cells: HEK-293
- Sequence (P28223 whole entry): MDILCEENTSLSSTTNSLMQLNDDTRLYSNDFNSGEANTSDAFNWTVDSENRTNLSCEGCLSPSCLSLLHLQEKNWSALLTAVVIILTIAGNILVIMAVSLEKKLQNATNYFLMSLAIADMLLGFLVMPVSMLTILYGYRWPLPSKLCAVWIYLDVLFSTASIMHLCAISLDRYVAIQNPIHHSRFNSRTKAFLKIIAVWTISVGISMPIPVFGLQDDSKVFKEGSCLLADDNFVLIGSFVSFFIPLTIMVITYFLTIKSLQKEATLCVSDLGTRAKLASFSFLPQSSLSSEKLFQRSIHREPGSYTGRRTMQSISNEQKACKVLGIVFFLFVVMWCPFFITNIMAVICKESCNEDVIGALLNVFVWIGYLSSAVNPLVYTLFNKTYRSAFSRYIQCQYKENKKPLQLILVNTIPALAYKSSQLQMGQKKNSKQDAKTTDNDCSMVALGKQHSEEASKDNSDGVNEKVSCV
- Assay Notes: Radioligand binding affinity on 5-HT2A receptor ([3H]-Ketanserin); also: test concentration or dose not given here
- Condition Info: 5-HT2A receptor protein expressed in HEK-293 cells

Compound | 5-HT2A receptor inhibition % [%]
CCc1cc2c(s1)C[C@H]1c3cc(O)c(OC)cc3CCN1C2 [DS003] | 45.15
COc1c(O)ccc2c1CN1CCc3sc(C)cc3[C@@H]1C2 [AS003] | 90.43
CCc1cc2c(s1)CCN1Cc3c(ccc(O)c3OC)C[C@@H]21 [AS005] | 76.11
COc1ccc2c(c1OC)CN1CCc3sc(C)cc3[C@@H]1C2 [AS023] | 60.08

* * *

- System Tested: 5-HT1A receptor (Homo sapiens, UniProt P08908)
- Assay Notes: Radioligand binding affinity on 5-HT1A receptor ([3H]8-OH-DPAT); as to 5-HT1A receptor inhibition %: test concentration or dose not given here
- Condition Info: 5-HT1A receptor protein expressed in HEK-293 cells

Compound | 5-HT1A receptor inhibition %, %
CCc1cc2c(s1)C[C@H]1c3cc(O)c(OC)cc3CCN1C2 [DS003] | 92.10
COc1c(O)ccc2c1CN1CCc3sc(C)cc3[C@@H]1C2 [AS003] | 91.91
COc1c(N)ccc2c1CN1CCc3sccc3[C@@H]1C2 [AS050] | 49.26
CCCc1cc2c(s1)C[C@H]1c3cc(O)c(OC)cc3CCN1C2 [DS005] | 85.33
COc1c(O)ccc2c1CN1CCc3sc(C)cc3[C@H]1C2 [AS004] | 51.69
CCCCc1cc2c(s1)C[C@H]1c3cc(O)c(OC)cc3CCN1C2 [DS007] | 87.03
COc1cc2c(cc1O)[C@@H]1Cc3sc(CC(C)C)cc3CN1CC2 [DS006] | 83.71
COc1ccc2c(c1OC)CN1CCc3sccc3[C@@H]1C2 [AS022] | 6.60
COc1ccc(OC)c2c1C[C@H]1c3cc(C)sc3CCN1C2 [AS032] | 74.09
COc1cc2c(cc1OC)CN1CCc3c([nH]c4ccccc34)[C@@H]1C2 [AI001] | 88.22
COc1cc2c(cc1O)[C@@H]1Cc3sc(CCCl)cc3CN1CC2 [DS013] | 89.84
CCc1cc2c(s1)CCN1Cc3c(ccc(O)c3OC)C[C@@H]21 [AS005] | 98.58
COc1c(NC(C)=O)ccc2c1CN1CCc3sccc3[C@@H]1C2 [AS051] | 33.90
COc1cc2c(cc1O)[C@@H]1Cc3sc(CCCCl)cc3CN1CC2 [DS015] | 92.24
COc1ccc2c(c1OC)CN1CCc3sc(C)cc3[C@@H]1C2 [AS023] | 76.45
